The reported measurements were obtained from patent US7902197B2.

# Experimental System: JAK2: Recombinant human kinase domain (Homo sapiens, UniProt O60674)
# Sequence (O60674 849-1124 limits assumed): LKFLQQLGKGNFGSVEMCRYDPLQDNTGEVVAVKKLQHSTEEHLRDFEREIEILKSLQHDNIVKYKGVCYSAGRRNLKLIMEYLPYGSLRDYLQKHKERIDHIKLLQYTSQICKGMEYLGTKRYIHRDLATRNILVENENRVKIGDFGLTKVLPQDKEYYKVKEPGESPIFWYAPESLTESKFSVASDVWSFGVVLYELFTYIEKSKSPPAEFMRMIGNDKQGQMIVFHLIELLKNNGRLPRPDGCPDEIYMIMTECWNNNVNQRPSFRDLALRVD
# Protocol Summary: Determination of IC50 of Janus Kinase (JAK) inhibition, radioactive end-point 33P-ATP assay, JAK2
# Conditions: 1 nM JAK2, ATP 1.5 uM, peptide 50 uM, 20 minutes; read-out: IC50 h-jak2-sf21-c

{"Sample Smiles": "CC(C)NC(=O)c1c[nH]c2ncc(N(C)C3CCCC3)nc12", "IC50": "129 nM"}
